- TESTED_ON: human CYP11B2 (Homo sapiens (Human), UniProt P19099)
- Sequence (P19099 25-503): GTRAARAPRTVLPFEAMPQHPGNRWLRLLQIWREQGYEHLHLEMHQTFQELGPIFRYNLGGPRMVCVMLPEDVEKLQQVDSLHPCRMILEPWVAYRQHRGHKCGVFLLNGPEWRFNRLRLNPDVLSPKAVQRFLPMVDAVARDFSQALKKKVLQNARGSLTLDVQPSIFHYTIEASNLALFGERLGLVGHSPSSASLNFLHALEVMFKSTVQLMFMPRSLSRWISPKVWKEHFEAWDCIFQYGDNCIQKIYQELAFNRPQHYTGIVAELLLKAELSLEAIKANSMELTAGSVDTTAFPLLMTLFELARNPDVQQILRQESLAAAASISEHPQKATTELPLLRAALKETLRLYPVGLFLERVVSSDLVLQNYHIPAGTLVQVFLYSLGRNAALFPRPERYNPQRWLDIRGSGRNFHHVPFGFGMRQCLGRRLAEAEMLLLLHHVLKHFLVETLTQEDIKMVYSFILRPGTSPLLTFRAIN
- TEST_METHOD_NOTES: V79-Human-CYP11B2 cell assay
- CONDITION_LABEL: V79 cells stably expressing human CYP11B2; 125 nM 11-deoxycorticosterone substrate; aldosterone by HTRF
The following molecules are shown together with reported log10(IC50) values.
ENDPOINT: log10(IC50) (log10 of the value in nM)

INSERT INTO assay_data (molecule, endpoint, recorded_measurement) VALUES
  ('Fc1cc(F)c2nc(-c3cncc4ccccc34)nn2c1 [Example 18]', 'log10(IC50)', 2.10),
  ('Cc1cccc2nc(-c3cncc(Br)c3)nn12 [Example 13]', 'log10(IC50)', 2.95),
  ('CC(C)(O)c1cncc(-c2nc3ccc(F)cn3n2)c1 [Example 12]', 'log10(IC50)', 3.03),
  ('Fc1ccc2nc(-c3cncc4ccccc34)nn2c1 [Example 21]', 'log10(IC50)', 1.66),
  ('Clc1cccn2nc(-c3cncc4ccccc34)nc12 [Example 7]', 'log10(IC50)', 2.23),
  ('Fc1ccn2nc(-c3cncc4ccccc34)nc2c1 [Example 20]', 'log10(IC50)', 1.34),
  ('c1ccc2c(-c3nc4ccccn4n3)cncc2c1 [Example 5]', 'log10(IC50)', 2.14);

====

- TESTED_ON: human CYP11B1 (Homo sapiens (Human), UniProt P15538)
- Sequence (P15538 25-503): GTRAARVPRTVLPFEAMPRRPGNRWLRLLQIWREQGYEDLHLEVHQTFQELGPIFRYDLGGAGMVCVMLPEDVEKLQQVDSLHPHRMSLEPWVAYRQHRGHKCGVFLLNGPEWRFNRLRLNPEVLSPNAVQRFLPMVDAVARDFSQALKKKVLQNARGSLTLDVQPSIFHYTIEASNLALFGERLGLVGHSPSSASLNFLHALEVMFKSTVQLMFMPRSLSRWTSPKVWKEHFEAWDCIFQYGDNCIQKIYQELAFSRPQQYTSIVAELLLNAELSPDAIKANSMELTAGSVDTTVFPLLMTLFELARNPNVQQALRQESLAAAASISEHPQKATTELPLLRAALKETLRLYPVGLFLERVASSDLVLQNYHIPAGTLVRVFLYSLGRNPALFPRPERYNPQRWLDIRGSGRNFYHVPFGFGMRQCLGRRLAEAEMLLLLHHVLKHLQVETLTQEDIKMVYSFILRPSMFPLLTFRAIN
- TEST_METHOD_NOTES: V79-Human-CYP11B1 cell assay
- CONDITION_LABEL: V79 cells stably expressing human CYP11B1; 250 nM 11-deoxycortisol substrate; cortisol by HTRF
pIC50: −log10 of the molar value.
Listed molecules paired with reported pIC50
ENDPOINT: pIC50

INSERT INTO measurements (molecule, endpoint, recorded_measurement) VALUES
  ('CC(C)(O)c1cncc(-c2nc3ccc(F)cn3n2)c1', 'pIC50', '< 5.08'),
  ('Fc1ccc2nc(-c3cncc4ccccc34)nn2c1', 'pIC50', 5.67),
  ('Fc1cc(F)c2nc(-c3cncc4ccccc34)nn2c1', 'pIC50', '< 5.08'),
  ('Cc1cccc2nc(-c3cncc(Br)c3)nn12', 'pIC50', '< 5.08'),
  ('Clc1cccn2nc(-c3cncc4ccccc34)nc12', 'pIC50', '< 5.08'),
  ('Fc1ccn2nc(-c3cncc4ccccc34)nc2c1', 'pIC50', 5.97),
  ('c1ccc2c(-c3nc4ccccn4n3)cncc2c1', 'pIC50', '< 5.08');
